Where do these numbers come from? They come from patent US20100291236A1.

Assay: Acidity (pKa / pKa*) of coordinated water, 1H NMR pH* titration
Conditions: aqua adduct
Label YES for high-side pKa of water coordinated on hydrolysis (aqua adduct of complex) (at or above 7) and NO for low-side pKa of water coordinated on hydrolysis (aqua adduct of complex) (below it).

C1=CCC2=C(C1)Cc1ccccc1C2.F[B-](F)(F)F.NCCN.[Cl][Os+] [AFAP65, [(η^6-THA)Os(en)Cl]BF4] : NO
CC(=O)C=C(C)[O][Os][Cl].Cc1ccc(C(C)C)cc1 : YES

QUERY: Given Cc1ccc(C(C)C)cc1.NCCC(=O)[O][Os][Cl] , state whether its pKa of water coordinated on hydrolysis (aqua adduct of complex) is at least 7.
RESULT: YES

QUERY: Also Cc1ccc(C(C)C)cc1.NCC(=O)[O][Ru][Cl] [RF01, reference compound] ?
RESULT: YES

QUERY: Also C1=CCC2=C(C1)Cc1ccccc1C2.F[P-](F)(F)(F)(F)F.NCCN.[Cl][Ru+] [HC11, reference compound] ?
RESULT: YES

QUERY: Also CC(=O)C=C(C)[O][Ru][Cl].Cc1ccc(C(C)C)cc1 [MMS6, reference compound] ?
RESULT: YES

QUERY: Also F[B-](F)(F)F.[Cl][Os-]1[NH2+]CC[NH2+]1.c1ccc(-c2ccccc2)cc1 [AFAP51, [(η^6-bip)Os(en)Cl]BF4] ?
RESULT: NO
